Biological target: human renal renin (Homo sapiens, UniProt P00797)
Construct: human renal renin, free from acid proteolytic activity; from tissue
Sequence (P00797 67-406): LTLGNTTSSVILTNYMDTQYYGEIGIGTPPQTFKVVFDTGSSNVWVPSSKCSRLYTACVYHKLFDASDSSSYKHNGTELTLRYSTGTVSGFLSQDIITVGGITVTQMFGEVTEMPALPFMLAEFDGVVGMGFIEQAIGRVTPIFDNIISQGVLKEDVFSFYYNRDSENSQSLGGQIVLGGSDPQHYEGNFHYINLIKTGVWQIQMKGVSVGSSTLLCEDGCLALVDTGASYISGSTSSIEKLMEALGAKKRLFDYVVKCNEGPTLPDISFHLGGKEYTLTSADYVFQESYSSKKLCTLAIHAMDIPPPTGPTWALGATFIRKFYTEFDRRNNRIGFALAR
Test: in vitro inhibition of human renal renin (angiotensin I formed measured by radioimmunoassay)
Assay type: biochemical
Conditions: human renal renin with renin substrate (human angiotensinogen), 37° C., pH 6.0
pIC50: −log10 of the molar value.
Note to self: values exactly at 8 are Y. So pIC50 at or above 8 is Y, below is N.

>  <Compound>
COc1ccc(C[C@H](NC(=O)C(C)C)C(=O)N[C@@H](Cc2c[nH]cn2)C(=O)N[C@@H](CC2CCCCC2)[C@@H](O)[C@@H](O)CN=[N+]=[N-])cc1

>  <Class Name>
Y

$$$$
>  <Compound>
CC(C)(C)OC(=O)N[C@@H](Cc1ccccc1)C(=O)N[C@@H](Cc1c[nH]cn1)C(=O)N[C@@H](CC1CCCCC1)[C@@H](O)[C@@H](O)CN=[N+]=[N-]

>  <Class Name>
Y

$$$$
>  <Compound>
COc1ccc(C[C@H](NC(=O)N2CCOCC2)C(=O)N[C@@H](Cc2c[nH]cn2)C(=O)N[C@@H](CC2CCCCC2)[C@@H](O)[C@@H](O)CN=[N+]=[N-])cc1

>  <Class Name>
Y

$$$$
>  <Compound>
CC(C)C(=O)N[C@H](C(=O)N[C@@H](Cc1c[nH]cn1)C(=O)N[C@@H](CC1CCCCC1)[C@@H](O)[C@@H](O)CN=[N+]=[N-])[C@@H](C)OCc1ccccc1

>  <Class Name>
Y

$$$$
>  <Compound>
CCOC(=O)N[C@@H](CC(C)C)C(=O)N[C@@H](CC(C)C)C(=O)N[C@@H](CC1CCCCC1)C(O)C(O)CO (some centres unmarked)

>  <Class Name>
N

$$$$
>  <Compound>
CC(C)CCC(=O)NC[C@H](O)[C@H](O)[C@H](CC1CCCCC1)NC(=O)[C@H](Cc1c[nH]cn1)NC(=O)[C@H](Cc1ccccc1)NC(=O)OC(C)(C)C

>  <Class Name>
Y

$$$$
>  <Compound>
COc1ccc(C[C@H](NC(=O)OC(C)(C)C)C(=O)N[C@@H](Cc2c[nH]cn2)C(=O)N[C@@H](CC2CCCCC2)[C@@H](O)[C@@H](O)CN=[N+]=[N-])cc1

>  <Class Name>
Y

$$$$
>  <Compound>
CCOC(=O)N[C@@H](Cc1ccccc1)C(=O)N[C@@H](CC(C)C)C(=O)N[C@@H](CC1CCCCC1)C(O)C(O)C(O)C(C)C (single isomer, unassigned) [Example 36A]

>  <Class Name>
N

$$$$
